Values from patent US20250250357A1

Biological target: T1, human MSLN-FL-his protein (human, UniProt Q13421 296-580)
T1 construct: also called human MSLN full-length protein; hMSLN-FL-his; not shown: His tag
T1 sequence (Q13421 other isoform, or with tags, fused parts or gaps): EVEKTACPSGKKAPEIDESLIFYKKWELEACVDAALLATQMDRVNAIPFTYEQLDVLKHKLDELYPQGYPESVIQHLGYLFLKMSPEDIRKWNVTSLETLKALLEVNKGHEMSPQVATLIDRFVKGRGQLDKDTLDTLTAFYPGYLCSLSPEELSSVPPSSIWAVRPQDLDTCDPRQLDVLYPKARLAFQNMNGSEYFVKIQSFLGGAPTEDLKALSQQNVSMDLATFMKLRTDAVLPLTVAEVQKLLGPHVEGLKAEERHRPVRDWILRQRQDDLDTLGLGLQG
Experiment: ELISA, coated antigen; antibody 1 nM
OD450 reference
The response must be a number in OD450 with no trailing unit.

// known answers, use as guide
S009-F6-62.5 (antibody, human IgG1, kappa, V domains shown, Human-murine chimeric antibody, human IgG1/kappa constant regions) VH: QVQLQQPGTELVKPGASVKLSCRASGYTFTAYWMHWVKQRPGQGLEWIGNINPSNGGTDFNEKFKSKATLTVDKSSSTAYMQLSSLTSEDSAVYYCARGRGYFDVWGTGTTVTVSS VL: DILLTQSPAILSVSPGERVSFSCRASKNIGTSIHWYQQRTNGSPRLLIKYASESISGIPSRFSGSGSGTDFTLNINSVESEDIADYYCQQSNSWPTLTFGAGTKLELKR = 3.13
S009-F4-127.10 (antibody, human IgG1, kappa, V domains shown, Human-murine chimeric antibody, human IgG1/kappa constant regions) VH: EVQLQQSGPVLVKPGASVKMSCKASGYTFTDYYMNWVKQSHGKSPEWIGVINPYNDVISYNQKFKGKATLTVDKSSSTAYMELNSLTSEDSAVYYCANYGSSYYAMDYWGQGTSVTVSS VL: DVVMTQTPLSLSVSLGDQASISCRSSQSLVHSNGNTYLQWSLQKPGQSPNLLIYKVSNRFSGVPDRFSGSGSGTDFTLKISRVEAEDLGVYFCSQTTHVPFTFGGGTKLEIRR = 0.06
S009-F6-76.1 (antibody, human IgG1, kappa, V domains shown, Human-murine chimeric antibody, human IgG1/kappa constant regions) VH: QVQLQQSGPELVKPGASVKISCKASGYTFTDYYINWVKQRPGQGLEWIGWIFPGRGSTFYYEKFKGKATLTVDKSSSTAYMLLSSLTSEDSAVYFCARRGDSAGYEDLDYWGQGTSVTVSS VL: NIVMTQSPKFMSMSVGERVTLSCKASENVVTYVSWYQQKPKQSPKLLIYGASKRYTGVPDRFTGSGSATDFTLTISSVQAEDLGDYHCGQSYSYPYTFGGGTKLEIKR = 2.87
S009-F5-9.16 (antibody, human IgG1, kappa, V domains shown, Human-murine chimeric antibody, human IgG1/kappa constant regions) VH: EVQLRQSGPVLVKPGASVKMSCKASGYTFTDYFMNWVKPSHGKSLEWIGVINPSNGVINYNQRFKGKATLTVDKSSSTAYMELNSLTSEDSAVYYCARSYDFAWFAYWGQGTLVTVSA VL: DVLMTQTPLSLPVSLGDQASISCRSSQNIVHSNGNTYLEWYLQKPGQSPKLLIYTVSNRFSGVPDRFSGSGSGTDFTLKISRVEAEDLGVYYCFQGSHVPYTFGGGTKLEIKR = 0.06

Query S009-F4-94.15 (antibody, human IgG1, kappa, V domains shown, Human-murine chimeric antibody, human IgG1/kappa constant regions) VH: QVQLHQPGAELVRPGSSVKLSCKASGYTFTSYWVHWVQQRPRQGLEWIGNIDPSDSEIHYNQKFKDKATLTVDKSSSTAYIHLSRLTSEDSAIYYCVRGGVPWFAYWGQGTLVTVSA VL: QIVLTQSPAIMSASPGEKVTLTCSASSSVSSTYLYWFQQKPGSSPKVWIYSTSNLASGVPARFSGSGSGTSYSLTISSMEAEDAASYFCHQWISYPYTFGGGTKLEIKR yields OD450 of 1.79
